// provenance: PubChem BioAssay (NCI)

# System: RPMI-8226 leukemia
# Method: NCI tumour cell line growth inhibition, 48 h
Measured TGI by item
The figure you give is taken to be in µM; do not add the unit.

{"Molecule": "CCN1CCN(C(=O)[C@@]2(C)CC[C@]3(C)CC[C@]4(C)C(=CC(=O)[C@@H]5[C@@]6(C)CC[C@H](OC7C[C@@H](O)[C@@H](O)C(C)O7)C(C)(C)[C@@H]6CC[C@]54C)[C@@H]3C2)CC1 (stereo not given in full)", "Experimental result": 2.52}
{"Molecule": "O=C1C=CC(=O)c2c1ccc1c3ccccc3n(CCCCCn3c4ccccc4c4ccc5c(c43)C(=O)C=CC5=O)c21", "Experimental result": 18.8}
{"Molecule": "COc1cc(-c2oc(=O)ccc2C#Cc2ccccn2)cc(OC)c1OC", "Experimental result": 9.59}
{"Molecule": "COc1ccc(/C=C\\[N+](=O)[O-])cc1OC", "Experimental result": 5.28}
{"Molecule": "O=C(Nc1ccc(Br)cc1F)c1cc(F)ccc1O", "Experimental result": 1.36}

Alright, here's another molecule for you.
I am curious: what TGI value has been reported for `CCOC(=O)c1cnc2c(ccc3[nH]n(C)nc32)c1=O` ?
67.5
